experiment: rat 28-day GLP repeat dose PO study (toxicokinetics); assay type: in vivo; details: female, rat, in vivo, po, 500 mg/kg
Property: AUC (µg·h/mL)

Compound | Numeric readout
CC1(C)SC(Nc2ccccc2O)=N[C@@H]1C(=O)O.Cl | 298

----------
Test: rat 28-day GLP repeat dose PO study (toxicokinetics)
Format: in vivo
Conditions: female, rat, in vivo, po, 2000 mg/kg
Protocol: A 28-day GLP repeat dose study with Compound 1 in rats was conducted with oral gavage doses of 0, 500, 1000 or 2000 mg/kg/day at a dosing volume of 10 mL/kg. The vehicle was 0.5% HPMC. There were 15 rats/sex in the control and high dose groups (5/sex for a 14-day recovery period) while the low and mid doses consisted of 10 rats/sex. Satellite groups of rats/sex/group for toxicokinetics were included. Rats in Group 1 (Vehicle Control) were bled once at approximately 1 hour post-dose on those days.

Compound | half-life
CC1(C)SC(Nc2ccccc2O)=N[C@@H]1C(=O)O.Cl | 8.05 h

----------
assay: rat 28-day GLP repeat dose PO study (toxicokinetics); assay type: in vivo; conditions: female, rat, in vivo, po, 500 mg/kg
Property: AUC(0-inf) (µg·h/mL)

Compound | Display unit | Numeric readout
CC1(C)SC(Nc2ccccc2O)=N[C@@H]1C(=O)O.Cl | µg·h/mL | 299

----------
assay: rat 7 day repeat IV dose study; type: in vivo; settings: female, Sprague-Dawley (SD), rat, plasma, iv, 150 mg/kg, 7 day IV, 150 mg/kg, F, 2 h after last dose Day 7; read-out: Mean Conc in rat plasma

Compound | concentration at 2 h, ng/mL
CC1(C)SC(Nc2ccccc2O)=N[C@@H]1C(=O)O.Cl [Compound 1, mono-hydrochloride] | 4650

----------
assay: rat 28-day GLP repeat dose PO study (toxicokinetics); type: in vivo; conditions: male, rat, in vivo, po, 1000 mg/kg

Compound | CL/F [mL/min/kg]
CC1(C)SC(Nc2ccccc2O)=N[C@@H]1C(=O)O.Cl [Compound 1] | 38.7

----------
assay: rat 7 day repeat IV dose study; assay type: in vivo; settings: female, Sprague-Dawley (SD), rat, plasma, iv, 75 mg/kg, 7 day IV, 75 mg/kg, F, 2 h after last dose Day 7; read-out: Mean Conc in rat plasma
Property: concentration at 2 h (ng/mL)

Compound | Property | Numeric readout
CC1(C)SC(Nc2ccccc2O)=N[C@@H]1C(=O)O.Cl [Compound 1, mono-hydrochloride] | concentration at 2 h | 3030

----------
assay: rat 28-day GLP repeat dose PO study (toxicokinetics); assay type: in vivo; settings: female, rat, in vivo, po, 500 mg/kg

Compound | Vd/F
CC1(C)SC(Nc2ccccc2O)=N[C@@H]1C(=O)O.Cl | 8.1 L/kg

----------
experiment: rat 28-day GLP repeat dose PO study (toxicokinetics); type: in vivo; details: male, rat, in vivo, po, 2000 mg/kg

Compound | CL/F (mL/min/kg)
CC1(C)SC(Nc2ccccc2O)=N[C@@H]1C(=O)O.Cl | 35.3

----------
test: rat 28-day GLP repeat dose PO study (toxicokinetics); type: in vivo; conditions: both sexes, in vivo; rat 28-day PO; read-out: overall mean CL/F (converted)

Compound | CL/F at 28 days (mL/min/kg)
CC1(C)SC(Nc2ccccc2O)=N[C@@H]1C(=O)O.Cl [Compound 1] | 35.2

----------
experiment: rat 28-day GLP repeat dose PO study (toxicokinetics); assay type: in vivo; details: both sexes, in vivo, po; rat 28-day pivotal study, at some doses
Property: Cmax at 28 days

Compound | Result
CC1(C)SC(Nc2ccccc2O)=N[C@@H]1C(=O)O.Cl | > 100 µg/mL
